Let's look at some compounds and their measured CC50 at 24 h.
experiment: in vitro; settings: human
Positions of bridges follow the written chain, without caps; N, C: chain ends. Non-standard residues stand in square brackets, D forms with d. Residues, ends and D or L forms follow the SMILES beside them. ξ: configuration not given here. *: point of attachment. Cholyl = C[C@H](CCC(=O)*)[C@H]1CC[C@H]2[C@@H]3[C@H](O)C[C@@H]4C[C@H](O)CC[C@]4(C)[C@H]3C[C@H](O)[C@]12C; Decanoyl(3R-OH) = CCCCCCC[C@@H](O)CC(=O)*; Decanoyl(3ξ-OH) = CCCCCCCC(O)CC(=O)*; dDab = NCC[C@@H](N)C(=O)O; Octanoyl = CCCCCCCC(=O)*; Dab = NCC[C@H](N)C(=O)O

Some solved entries appear below for comparison.
CCCCCCC[C@@H](O)CC(=O)N[C@H](CCCCN)C(=O)N[C@H]1CCNC(=O)[C@H](CC(C)C)NC(=O)[C@H](CCN)NC(=O)[C@H](CCN)NC(=O)[C@H](CC(C)C)NC(=O)[C@@H](Cc2ccccc2)NC(=O)[C@H](CCN)NC1=O [compound 5381] ({Decanoyl(3R-OH)}-[dK][Dab][Dab][dF]L[Dab][Dab]L; lactam 2-C) | > 300 µM
CC(C)C[C@@H]1NC(=O)[C@H](CCN)NC(=O)[C@H](CCN)NC(=O)[C@H](CC(C)C)NC(=O)[C@@H](Cc2ccccc2)NC(=O)[C@H](CCN)NC(=O)[C@@H](NC(=O)[C@@H](CCN)NC(=O)CC[C@@H](C)[C@H]2CC[C@H]3[C@@H]4[C@H](O)C[C@@H]5C[C@H](O)CC[C@]5(C)[C@H]4C[C@H](O)[C@]23C)CCNC1=O [compound 5016] (Cholyl-[dDab][Dab][Dab][dF]L[Dab][Dab]L; lactam 2-C) | 48 µM
CCCCCCCC(=O)N[C@H](CCN)C(=O)N[C@H]1CCNC(=O)[C@H](Cc2c[nH]c3ccccc23)NC(=O)[C@H](CCN)NC(=O)[C@H](CCN)NC(=O)[C@H](CC(C)C)NC(=O)[C@@H](Cc2ccccc2)NC(=O)[C@H](CCN)NC1=O [compound 8901] (Octanoyl-[dDab][Dab][Dab][dF]L[Dab][Dab]W; lactam 2-C) | > 300 µM
CCCCCCCC(O)CC(=O)N[C@H](CCN)C(=O)N[C@H]1CCNC(=O)[C@H](CC(C)C)NC(=O)[C@H](CCN)NC(=O)[C@H](CCN)NC(=O)[C@H](CC(C)C)NC(=O)[C@@H](Cc2ccccc2)NC(=O)[C@H](CCN)NC1=O (stereo partly drawn) [compound 5013] ({Decanoyl(3ξ-OH)}-[dDab][Dab][Dab][dF]L[Dab][Dab]L; lactam 2-C) | > 300 µM
CCCCCCC[C@@H](O)CC(=O)NCC(=O)N[C@H]1CCNC(=O)[C@H](CC(C)C)NC(=O)[C@H](CCN)NC(=O)[C@H](CCN)NC(=O)[C@H](Cc2ccccc2)NC(=O)[C@@H](CC(C)C)NC(=O)[C@H](CCN)NC1=O [compound 6431] ({Decanoyl(3R-OH)}-G[Dab][Dab][dL]F[Dab][Dab]L; lactam 2-C) | > 300 µM

Turning now to a further compound:
Input: Quick one: CC50 at 24 h for CCCCCCC[C@@H](O)CC(=O)N[C@H](CCN)C(=O)N[C@H]1CCNC(=O)[C@H](CC(C)C)NC(=O)[C@H](CCNC(=O)[C@@H](N)CCCNC(=N)N)NC(=O)[C@H](CCN)NC(=O)[C@H](CC(C)C)NC(=O)[C@@H](Cc2ccccc2)NC(=O)[C@H](CCN)NC1=O [compound 6653] ({Decanoyl(3R-OH)}-[dDab][Dab][Dab][dF]L[Dab][Dab](Arg)L; lactam 2-C) ?
Output: > 300 µM

// provenance: patent US11279733B2
